Assay: Solubility test of free base in solvents
Assay type: physicochemical
Conditions: organic solvent or mixture, thermodynamic from solid; Tetrahydrofuran (THF), 50° C.; read-out: Solubility
VALUE KIND: solubility

Entry under test: Cc1ccncc1-c1ccc2nc(NC(=O)[C@@H]3C[C@@H]3F)sc2c1 [free base] . Its solubility was 9 to 13 mg/mL

====

Test: Solubility test of free base in solvents
Format: physicochemical
Settings: organic solvent or mixture, thermodynamic from solid; Acetone, 25° C.; read-out: Solubility
VALUE KIND: solubility

Short answer for Cc1ccncc1-c1ccc2nc(NC(=O)[C@@H]3C[C@@H]3F)sc2c1 [free base] : solubility was < 5000 µg/mL

====

Assay: Solubility test of free base in solvents
Type: physicochemical
Details: organic solvent or mixture, thermodynamic from solid; Heptane, 25° C.; read-out: Solubility
VALUE KIND: solubility

Sure, the documented solubility for Cc1ccncc1-c1ccc2nc(NC(=O)[C@@H]3C[C@@H]3F)sc2c1 [free base] is < 5000 µg/mL

====

Assay: Solubility test of free base in solvents
Format: physicochemical
Settings: aqueous with cosolvent or surfactant or cyclodextrin, thermodynamic from solid; EtOH/H2O (1/1, v/v), 50° C.; read-out: Solubility
VALUE KIND: solubility

Field solubility (entry Cc1ccncc1-c1ccc2nc(NC(=O)[C@@H]3C[C@@H]3F)sc2c1 [free base] ) reads < 5000 µg/mL

====

Experiment: Solubility test of free base in solvents
Type: physicochemical
Conditions: organic solvent or mixture, thermodynamic from solid; Methyl tert-butyl ether (MtBE), 50° C.; read-out: Solubility
VALUE KIND: solubility

Just so you know, measured solubility for Cc1ccncc1-c1ccc2nc(NC(=O)[C@@H]3C[C@@H]3F)sc2c1 [free base] came out at < 5000 µg/mL

====

Experiment: Solubility test of free base in solvents
Format: physicochemical
Settings: organic solvent or mixture, thermodynamic from solid; Methyl tert-butyl ether (MtBE), 25° C.; read-out: Solubility
VALUE KIND: solubility

// Cc1ccncc1-c1ccc2nc(NC(=O)[C@@H]3C[C@@H]3F)sc2c1 [free base] : solubility value = < 5000 µg/mL
